Biological target: ScSla1-D1-D2
Assay: SPOT peptide array binding signal intensity (averaged, normalized) (arbitrary units (background-subtracted, floor 0; scale differs between SH3 domains)); higher = stronger binding of the SH3 domain to the peptide
Listing: SPOT peptide array binding signal intensity of selected binders
Write the number on its own, no unit after it.

Sample answers from the record:
BINDER | OBSERVED_RESULT
VPPPMQPPPIESSNL | 75.5
KMSRSPPRPPSLKII | 653

Supply recorded SPOT peptide array binding signal intensity for KDKKTKPTPPPKPSH here.
9

Supply recorded SPOT peptide array binding signal intensity for HRRRRVFSIPSLKSI here.
321
